Test system: SK-MEL-5 melanoma
Assay: NCI-60 one-dose screen, 48 h (100 = growth as untreated, 0 = no growth, -100 = all killed)
Settings: 10 µM unless noted
The panel holds about 83,000 compounds, 20% with a hit somewhere; the sample as a whole holds those more often. Calls of active or inactive are those of the source. Rule for the calls: active = growth percent below 10; inactive = the rest.
OBSERVATION TYPE: growth

Reference set (5 entries):
• N#Cc1ccccc1Cn1c2nc(=N)c3ccccc3c-2nc2ccccc21 = 32.5% (inactive)
• O=C(Cn1c(-c2ccccc2)nc2cc(Cl)c(Cl)cc21)N=Nc1c(O)[nH]c2ccc(Cl)cc12 = 79.5% (inactive)
• N#Cc1c(NC(=O)c2cccc(C(F)(F)F)c2F)sc2c1CCC(=O)C2 = -91.1% (active)
• Cc1ccc(-n2cc(/C=N/NC(=O)c3nc(N)n[nH]3)c(-c3ccc(S(C)(=O)=O)cc3)n2)cc1 = 103% (inactive)
• O=C(NCCN1CCCC1)c1ccc(-c2nc3ccc4[nH]ncc4c3c3c2CCCC3)cc1 = 5.04% (active)

The record that follows has no growth shown yet.
Value lookup for growth; key = `C#CCC#CCN1CCC[C@H]1C(=O)NCC(=O)OC` 100% (inactive)

This collection of values is drawn from PubChem BioAssay (NCI).
